Test system: rodent lifetime carcinogenesis bioassay, tumor incidence TD50
testSummary: carcinogenic potency in animals, long-term in vivo studies, CPDB compilation (AID 1745844)
experimentalParameters: rat; strain Fischer 344; males; in drinking water; site: skin; lesion: squamous-cell papilloma; dosed 88 weeks; study length 92 weeks
observationType: TD50 (mg/kg/day)
Hi! Could you send only the number? It should be in mg/kg/day, unit omitted.

*Q* If you can, please state the reported TD50 value of `COc1cc(-c2ccc(N)c(OC)c2)ccc1N` .
*A* 6.6

* * *

Test system: rodent lifetime carcinogenesis bioassay, tumor incidence TD50
testSummary: carcinogenic potency in animals, long-term in vivo studies, CPDB compilation (AID 1745844)
experimentalParameters: rat; strain Sprague-Dawley; males; i.p.; site: brain + olfactory bulb; lesion: carcinoma, NOS + olfactory neuroblastoma + adenocarcinoma, NOS; dosed 26 weeks; study length 61 weeks
observationType: TD50

*Q* If you can, please state the reported TD50 value of `CNNCc1ccc(C(=O)NC(C)C)cc1` .
*A* 0.343 mg/kg/day
